Measured Activity, listed per entry for reference.
- assayed.target: Protein cereblon/Interleukin-1 receptor-associated kinase 4 (Homo sapiens) (UniProt Q9NWZ3+Q96SW2)
- Sequence (Q96SW2 whole entry, looked up): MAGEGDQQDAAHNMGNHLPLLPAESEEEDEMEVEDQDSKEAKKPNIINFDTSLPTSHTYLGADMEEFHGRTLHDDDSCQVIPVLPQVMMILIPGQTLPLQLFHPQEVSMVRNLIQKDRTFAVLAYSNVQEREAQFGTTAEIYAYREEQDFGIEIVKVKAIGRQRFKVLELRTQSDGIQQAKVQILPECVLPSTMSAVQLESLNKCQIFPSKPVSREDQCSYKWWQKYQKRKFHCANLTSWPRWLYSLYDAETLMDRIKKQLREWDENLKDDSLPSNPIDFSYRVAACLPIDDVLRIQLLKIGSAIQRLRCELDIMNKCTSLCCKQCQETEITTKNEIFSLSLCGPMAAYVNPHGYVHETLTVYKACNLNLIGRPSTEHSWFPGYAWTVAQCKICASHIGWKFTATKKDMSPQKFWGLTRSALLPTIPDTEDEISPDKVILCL
- Sequence (Q9NWZ3 whole entry, looked up): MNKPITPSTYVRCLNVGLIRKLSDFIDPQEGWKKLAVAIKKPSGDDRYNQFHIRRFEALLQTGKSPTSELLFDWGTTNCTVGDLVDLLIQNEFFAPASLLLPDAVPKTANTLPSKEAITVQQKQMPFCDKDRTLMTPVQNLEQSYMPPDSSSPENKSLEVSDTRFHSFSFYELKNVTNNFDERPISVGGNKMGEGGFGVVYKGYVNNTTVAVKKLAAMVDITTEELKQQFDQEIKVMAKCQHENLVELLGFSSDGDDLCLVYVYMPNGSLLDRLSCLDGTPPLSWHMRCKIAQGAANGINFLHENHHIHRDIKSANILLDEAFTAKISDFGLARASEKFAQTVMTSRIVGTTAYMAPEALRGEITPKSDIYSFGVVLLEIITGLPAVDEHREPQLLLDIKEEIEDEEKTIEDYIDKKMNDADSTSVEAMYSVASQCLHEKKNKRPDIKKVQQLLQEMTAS
- assay.comment: Protac activity at IRAK4 in human OCl-LY10 cells assessed as increase in E3 ubiquitin ligase mediated IRAK4 degradation at 0.01 uM incubated for 4 hrs by Western blot analysis relative to control
- Type: cell-based

[[record]]
compound = "CN(CCOCCOCCCc1ccc2c(c1)C(=O)N(C1CCC(=O)NC1=O)C2=O)C(=O)c1ccc(-n2cc(NC(=O)c3coc(-c4ccnc(NCC5CC5)c4)n3)c(C(N)=O)n2)cc1 (stereo not given)"
measured_attribute = "Activity"
result_value = "> 50%"

[[record]]
compound = "NC(=O)c1nn(-c2ccc(C(=O)NCC3CCCCN3CCOCCNc3cccc4c3C(=O)N(C3CCC(=O)NC3=O)C4=O)cc2)cc1NC(=O)c1coc(-c2ccnc(NCC(F)(F)F)c2)n1 (stereo not given)"
measured_attribute = "Activity"
result_value = "> 50%"

[[record]]
compound = "CN(CCOCCCc1cccc2c1C(=O)N(C1CCC(=O)NC1=O)C2=O)Cc1ccc(-n2cc(NC(=O)c3coc(-c4ccnc(NCC5CC5)c4)n3)c(C(N)=O)n2)cc1 (stereo not given)"
measured_attribute = "Activity"
result_value = "> 20%"

[[record]]
compound = "O=C1CCC(N2C(=O)c3cccc(NC4CCN(CCOCCOCCNC(=O)c5ccc(-n6cc(NC(=O)c7coc(-c8ccnc(NCC(F)(F)F)c8)n7)c(C(F)F)n6)cc5)CC4)c3C2=O)C(=O)N1 (stereo not given)"
measured_attribute = "Activity"
result_value = "> 50%"

[[record]]
compound = "CN(CCOCCOCCCc1ccc2c(c1)C(=O)N(C1CCC(=O)NC1=O)C2=O)Cc1ccc(-n2cc(NC(=O)c3coc(-c4ccnc(NCC5CC5)c4)n3)c(C(N)=O)n2)cc1 (stereo not given)"
measured_attribute = "Activity"
result_value = "> 20%"

[[record]]
compound = "CN(CCOCCOCCCc1ccc2c(c1)C(=O)N(C1CCC(=O)NC1=O)C2=O)Cc1ccc(-n2cc(NC(=O)c3coc(-c4ccncc4)n3)c(C(N)=O)n2)cc1 (stereo not given)"
measured_attribute = "Activity"
result_value = "> 20%"

[[record]]
compound = "O=C1CCC(n2c(=O)oc3c(CCCOCCOCCNC(=O)c4ccc(-n5cc(NC(=O)c6coc(-c7ccnc(NCC8CC8)c7)n6)c(C(F)F)n5)cc4)cccc32)C(=O)N1 (stereo not given)"
measured_attribute = "Activity"
result_value = "> 20%"

[[record]]
compound = "NC(=O)c1nn(-c2ccc(CNCC3CN(CCOCCNc4cccc5c4C(=O)N(C4CCC(=O)NC4=O)C5=O)CCO3)cc2)cc1NC(=O)c1coc(-c2ccnc(NCC(F)(F)F)c2)n1 (stereo not given)"
measured_attribute = "Activity"
result_value = "> 50%"


input: Retrieve Activity measured for NCc1nn(-c2ccc(C(=O)NCCOCCOCCNc3cccc4c3C(=O)N(C3CCC(=O)NC3=O)C4=O)cc2)cc1NC(=O)c1coc(-c2ccnc(NCC(F)(F)F)c2)n1 (stereo not given) and print it.
output: > 50%

input: Determine its reported Activity: O=C1CCC(N2C(=O)c3cccc(NCCNCCOCCNC(=O)c4ccc(-n5cc(NC(=O)c6coc(-c7ccnc(NCC8CC8)c7)n6)c(C(F)(F)F)n5)cc4)c3C2=O)C(=O)N1 (stereo not given)
output: > 50%
